Here, each record is paired with measured log10(Ki) data.
# target desc: "peripheral" receptor sites of benzodiazepines (Rattus norvegicus)
# Construct: on kidney membranes from the rat; from tissue; host or cells: rat kidney membranes
# assay summary: Affinity for "peripheral" receptor sites of benzodiazepines: displacement of tritiated diazepam on kidney membranes from the rat
# Type: binding
# measurement parameters: read-out: Ki
# Text: The products have been studied according to the method of C. BRAESTRUP et al, Proc. Natl. Acad. Sci. USA, 1977, 74, 3805, on kidney membranes from the rat.
Scale: log10; quantity: Ki; unit before log: nM

[
  {
    "compound": "CCC(C)N(C)C(=O)c1cc2ccccc2c(-c2ccccc2F)n1 (stereo not shown)",
    "log10(Ki)": -0.05
  }
]

Field log10(Ki) ("peripheral" receptor sites of benzodiazepines (Rattus norvegicus)), entry `O=C(c1cc2ccccc2c(-c2ccccc2)n1)N1CCCCC1` : 2.32

Considering CCC(C)N(C)C(=O)c1cc2sccc2c(-c2ccccc2Cl)n1 (stereo not shown) , its log10(Ki) with "peripheral" receptor sites of benzodiazepines (Rattus norvegicus) was recorded as 0.00

// returns log10(Ki) for `CCN(CC)C(=O)c1cc2ccccc2c(-c2ccc(C)cc2)n1` with "peripheral" receptor sites of benzodiazepines (Rattus norvegicus); value = 2.00

Lab entry: "peripheral" receptor sites of benzodiazepines (Rattus norvegicus) assay, compound `CCN(CC)C(=O)c1cc2ccccc2c(-c2cccc(F)c2)n1` , log10(Ki) = 1.30

Recorded log10(Ki) for `CCN(CC)C(=O)c1cc2sccc2c(-c2ccccc2Cl)n1` on "peripheral" receptor sites of benzodiazepines (Rattus norvegicus) was 0.95

* * *

Entries and their measured pKi follow.
# target desc: "peripheral" receptor sites of benzodiazepines (Rattus norvegicus, UniProt P16257)
# Construct: on kidney membranes from the rat; from tissue; host or cells: rat kidney membranes
# assay summary: Affinity for "peripheral" receptor sites of benzodiazepines: displacement of tritiated diazepam on kidney membranes from the rat
# Type: binding
# measurement parameters: read-out: Ki
# log scale: pKi equals minus log10 of the concentration in mol/L

Past entries and their recorded results:
[
  {
    "compound": "CCC(C)N(C)C(=O)c1cc2ccsc2c(-c2ccccc2Cl)n1 (centres unmarked) [Example 46]",
    "endpoint result": 8.15
  },
  {
    "compound": "CCN(CC)C(=O)c1cc2ccccc2c(-c2ccccc2Cl)n1 [Example 6]",
    "endpoint result": 7.77
  },
  {
    "compound": "CN(Cc1ccccc1)C(=O)c1cc2ccccc2c(-c2ccccc2Cl)n1 [Example 17]",
    "endpoint result": 6.93
  }
]

The value of pKi measured for the compound CC(C)N(C(=O)c1cc2ccccc2c(-c2ccccc2Cl)n1)C(C)C [Example 24] turned out to be 7.70

The compound listed as O=C(c1cc2ccccc2c(-c2ccccc2Cl)n1)N1CCCCC1 [Example 13] shows pKi equal to 7.14

// pKi value for CC[C@@H]1CCCCN1C(=O)c1cc2ccccc2c(-c2ccccc2)n1 [Example 41] : 7.66

Form field pKi, entry CCN(CC)C(=O)c1cc(-c2cccc([N+](=O)[O-])c2)c2ccccc2n1 [Example 38] : 7.52

Lab note: CCN(CC)C(=O)c1cc2ccsc2c(-c2ccccc2Cl)n1 [Example 32] gave pKi of 8.20

Lookup result for CCN(CC)C(=O)c1cc2ccccc2c(-c2ccccc2)n1 [Example 5] ; measured pKi: 6.82

The value of pKi measured for the compound CCN(CC)C(=O)c1nc(-c2ccccc2)c2ccccc2n1 [Example 33] turned out to be 7.57

Recorded pKi (compound CC[C@H]1CCCCN1C(=O)c1cc2ccccc2c(-c2ccccc2)n1 [Example 42] ): 7.89

* * *

# target desc: "peripheral" receptor sites of benzodiazepines (Rattus norvegicus, UniProt P16257)
# Construct: on kidney membranes from the rat; from tissue; host or cells: rat kidney membranes
# assay summary: Affinity for "peripheral" receptor sites of benzodiazepines: displacement of tritiated diazepam on kidney membranes from the rat
# Format: binding
# measurement parameters: read-out: Ki
endpoint label: Ki (nM)
Reply numerically in nM, unit not repeated.

Example entries begin here.
[
  {
    "molecule": "C=CC(C)N(C)C(=O)c1cc2ccccc2c(-c2ccccc2Cl)n1 (centres unmarked)",
    "Ki, nM": 3
  },
  {
    "molecule": "CCN(CC)C(=O)c1cc2ccccc2c(-c2cccc(C(F)(F)F)c2)n1",
    "Ki, nM": 13
  },
  {
    "molecule": "CCCN(CCC)C(=O)c1cc2ccccc2c(-c2ccccc2Cl)n1",
    "Ki, nM": 18
  },
  {
    "molecule": "CCC(C)N(C)C(=O)c1cc(-c2ccccc2F)c2ccccc2n1 (centres unmarked)",
    "Ki, nM": 2
  }
]

Next:
`CCCCN(CCCC)C(=O)c1cc2ccccc2c(-c2ccccc2)n1` yielded Ki of 21

* * *

# target desc: "peripheral" receptor sites of benzodiazepines (Rattus norvegicus, UniProt P16257)
# Construct: on kidney membranes from the rat; from tissue; host or cells: rat kidney membranes
# assay summary: Affinity for "peripheral" receptor sites of benzodiazepines: displacement of tritiated diazepam on kidney membranes from the rat
# Format: binding
# measurement parameters: read-out: Ki
endpoint label: pKi
Note on units: pKi is unitless, being -log10 of a concentration expressed in mol/L.

Entry under test: CCC1CCCCN1C(=O)c1cc2ccccc2c(-c2ccccc2)n1 (stereo not shown) . Its pKi was 7.80

# pKi of `CCN(CC)C(=O)c1cc(-c2ccccc2)c2ccccc2n1` = 7.57

The reported value for `CCN(CC)C(=O)c1cc2ccccc2c(-c2cccc(Cl)c2)n1` in terms of pKi is 8.05

Value of pKi reported for the compound `CCN(CC)C(=O)c1cc(-c2ccccc2)c2ccccc2c1` is 8.27

The measurements presented in this section are drawn from patent US4499094A.
